- experimental_protocol: self-splicing fitness, log relative to wild type (ln ratio); higher = more splicing; Tetrahymena group I intron in knt gene, E. coli kanamycin selection, DiMSum; sequences stand for … in CUCUCU…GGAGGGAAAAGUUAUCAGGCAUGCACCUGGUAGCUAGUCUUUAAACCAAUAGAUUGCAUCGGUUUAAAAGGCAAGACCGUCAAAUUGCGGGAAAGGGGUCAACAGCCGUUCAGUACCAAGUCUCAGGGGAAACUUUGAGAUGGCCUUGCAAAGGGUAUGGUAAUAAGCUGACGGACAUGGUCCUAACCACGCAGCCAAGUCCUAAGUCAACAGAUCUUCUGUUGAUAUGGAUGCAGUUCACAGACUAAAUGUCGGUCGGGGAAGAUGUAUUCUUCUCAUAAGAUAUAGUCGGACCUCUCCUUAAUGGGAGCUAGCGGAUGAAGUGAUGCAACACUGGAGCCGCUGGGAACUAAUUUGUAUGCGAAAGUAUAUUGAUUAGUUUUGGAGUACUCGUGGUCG;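 note: selection with 25 µg/mL kanamycin versus none on LB agar overnight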
- condition_notes: 30 °C
What self-splicing fitness (ln) was measured for each of the following?
// print number alone

Exercise: Answer with the recorded self-splicing fitness (ln) of `AGUAAGCAAUAUUACGACCU` only.
Solution: 0.329

Exercise: Answer with the recorded self-splicing fitness (ln) of `AUACAGCAAUAUUACGGGCU` only.
Solution: -2.77

Exercise: Answer with the recorded self-splicing fitness (ln) of `GAUCAGCAAUAUUACGAUGU` only.
Solution: -0.363

Exercise: Answer with the recorded self-splicing fitness (ln) of `UUAAAGCAAUAUUACGCUUA` only.
Solution: -1.02

Exercise: Answer with the recorded self-splicing fitness (ln) of `UUGUAGCAAUAUUACGUAGC` only.
Solution: -3.44

Exercise: Answer with the recorded self-splicing fitness (ln) of `GCUUAGCAAUAUUACGUACG` only.
Solution: -1.07

Exercise: Answer with the recorded self-splicing fitness (ln) of `GCGUAGCAAUAUUACGAUCC` only.
Solution: -2.41

Exercise: Answer with the recorded self-splicing fitness (ln) of `AUUGAGCAAUAUUACGACCU` only.
Solution: -3.17

Exercise: Answer with the recorded self-splicing fitness (ln) of `GUUCAGCAAUAUUACGUGGC` only.
Solution: -2.08

Exercise: Answer with the recorded self-splicing fitness (ln) of `UGGGAGCAAUAUUACGUUCG` only.
Solution: -1.34

Exercise: Answer with the recorded self-splicing fitness (ln) of `AUUGAGCAAUAUUACGUACG` only.
Solution: -3.25

Exercise: Answer with the recorded self-splicing fitness (ln) of `UUCAAGCAAUAUUACGAACA` only.
Solution: -2.07

Exercise: Answer with the recorded self-splicing fitness (ln) of `GGAUAGCAAUAUUACGCGUA` only.
Solution: -0.646

Exercise: Answer with the recorded self-splicing fitness (ln) of `UGGAAGCAAUAUUACGGCGU` only.
Solution: -1.16

Exercise: Answer with the recorded self-splicing fitness (ln) of `UUCGAGCAAUAUUACGCUCG` only.
Solution: -1.64

Exercise: Answer with the recorded self-splicing fitness (ln) of `ACGGAGCAAUAUUACGAUGA` only.
Solution: -2.56

* * *

- experimental_protocol: self-splicing fitness, log relative to wild type (ln ratio); higher = more splicing; Tetrahymena group I intron in knt gene, E. coli kanamycin selection, DiMSum; sequences stand for … in CUCUCU…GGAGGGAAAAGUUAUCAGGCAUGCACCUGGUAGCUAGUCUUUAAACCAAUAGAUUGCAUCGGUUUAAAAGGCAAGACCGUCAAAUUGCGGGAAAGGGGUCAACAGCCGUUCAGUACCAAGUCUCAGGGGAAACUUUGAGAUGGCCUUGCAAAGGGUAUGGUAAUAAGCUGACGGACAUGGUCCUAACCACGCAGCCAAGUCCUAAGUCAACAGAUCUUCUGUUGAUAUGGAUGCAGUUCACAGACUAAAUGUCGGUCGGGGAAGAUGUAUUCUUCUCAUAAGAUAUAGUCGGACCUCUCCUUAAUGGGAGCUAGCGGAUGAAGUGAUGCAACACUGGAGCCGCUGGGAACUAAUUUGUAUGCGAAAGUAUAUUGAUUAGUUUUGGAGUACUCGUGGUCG
- condition_notes: 37 °C
What self-splicing fitness (ln) was measured for each of the following?
// print number alone

Exercise: Answer with the recorded self-splicing fitness (ln) of `UAAAAGCAAUAUUACGCUGU` only.
Solution: -2.26

Exercise: Answer with the recorded self-splicing fitness (ln) of `CAUUAGCAAUAUUACGGCCU` only.
Solution: -2.21

Exercise: Answer with the recorded self-splicing fitness (ln) of `GUUGAGCAAUAUUACGCCCU` only.
Solution: 0.108

Exercise: Answer with the recorded self-splicing fitness (ln) of `UAAAAGCAAUAUUACGCUCU` only.
Solution: -0.11

Exercise: Answer with the recorded self-splicing fitness (ln) of `UCUUAGCAAUAUUACGCGCG` only.
Solution: -1.76

Exercise: Answer with the recorded self-splicing fitness (ln) of `UGCUAGCAAUAUUACGGGCC` only.
Solution: -1.33

Exercise: Answer with the recorded self-splicing fitness (ln) of `GCCCAGCAAUAUUACGGUCU` only.
Solution: -0.732

Exercise: Answer with the recorded self-splicing fitness (ln) of `GUAUAGCAAUAUUACGUCAG` only.
Solution: -1.08

Exercise: Answer with the recorded self-splicing fitness (ln) of `GGUUAGCAAUAUUACGCGAC` only.
Solution: -1.33

Exercise: Answer with the recorded self-splicing fitness (ln) of `AAGAAGCAAUAUUACGCGUG` only.
Solution: -0.537

Exercise: Answer with the recorded self-splicing fitness (ln) of `CAUUAGCAAUAUUACGGUAA` only.
Solution: -2.26

Exercise: Answer with the recorded self-splicing fitness (ln) of `AAAAAGCAAUAUUACGAUAC` only.
Solution: -0.696

Exercise: Answer with the recorded self-splicing fitness (ln) of `ACCCAGCAAUAUUACGAUGA` only.
Solution: -0.256

Exercise: Answer with the recorded self-splicing fitness (ln) of `AUUAAGCAAUAUUACGUCCA` only.
Solution: -0.386

Exercise: Answer with the recorded self-splicing fitness (ln) of `CCAAAGCAAUAUUACGUAGC` only.
Solution: -2.48

Exercise: Answer with the recorded self-splicing fitness (ln) of `UUUAAGCAAUAUUACGAAUC` only.
Solution: -1.04

Exercise: Answer with the recorded self-splicing fitness (ln) of `AAAUAGCAAUAUUACGAGUG` only.
Solution: -0.435

Exercise: Answer with the recorded self-splicing fitness (ln) of `UCGGAGCAAUAUUACGGCCA` only.
Solution: -1.63

Exercise: Answer with the recorded self-splicing fitness (ln) of `CCUCAGCAAUAUUACGAAUA` only.
Solution: -2.78

Exercise: Answer with the recorded self-splicing fitness (ln) of `CAAUAGCAAUAUUACGCUCU` only.
Solution: -1.88

Exercise: Answer with the recorded self-splicing fitness (ln) of `UACCAGCAAUAUUACGAGCA` only.
Solution: 0.225

Exercise: Answer with the recorded self-splicing fitness (ln) of `UGUAAGCAAUAUUACGUCUG` only.
Solution: 0.32

Exercise: Answer with the recorded self-splicing fitness (ln) of `CAUGAGCAAUAUUACGUGGA` only.
Solution: -3

Exercise: Answer with the recorded self-splicing fitness (ln) of `UAAGAGCAAUAUUACGACGG` only.
Solution: -2.54

Exercise: Answer with the recorded self-splicing fitness (ln) of `AAGCAGCAAUAUUACGCAAA` only.
Solution: -1.65

Exercise: Answer with the recorded self-splicing fitness (ln) of `CCUGAGCAAUAUUACGAGCG` only.
Solution: -0.727

Exercise: Answer with the recorded self-splicing fitness (ln) of `GUCAAGCAAUAUUACGUUCU` only.
Solution: -1.3

Exercise: Answer with the recorded self-splicing fitness (ln) of `AGACAGCAAUAUUACGCUAA` only.
Solution: -0.0364

Exercise: Answer with the recorded self-splicing fitness (ln) of `AAUGAGCAAUAUUACGGGCC` only.
Solution: -1.76

Exercise: Answer with the recorded self-splicing fitness (ln) of `GAUGAGCAAUAUUACGGCUU` only.
Solution: -1.12

Exercise: Answer with the recorded self-splicing fitness (ln) of `GAACAGCAAUAUUACGAUAU` only.
Solution: -0.525

Exercise: Answer with the recorded self-splicing fitness (ln) of `UUCCAGCAAUAUUACGAUUG` only.
Solution: -1.47

Exercise: Answer with the recorded self-splicing fitness (ln) of `GUGAAGCAAUAUUACGGACU` only.
Solution: -0.194

Exercise: Answer with the recorded self-splicing fitness (ln) of `ACGAAGCAAUAUUACGACCG` only.
Solution: 0.219
